- TARGET OR TEST SYSTEM: T1, human IL-13 (recombinant E. coli-expressed) (human, UniProt P35225 35-146)
- T1 construct: also called hIL-13
- T1 sequence (P35225 other isoform, or with tags, fused parts or gaps limits assumed): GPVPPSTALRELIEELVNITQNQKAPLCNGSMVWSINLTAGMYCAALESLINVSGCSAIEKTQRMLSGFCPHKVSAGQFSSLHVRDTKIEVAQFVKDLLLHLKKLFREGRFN
- ASSAY PROCEDURE: Biacore T100 SPR, mAb (supernatant) captured on anti-human IgG, IL13 analyte, 1:1 fit
I'd be grateful if you could share measured Kd for these entries.
State the answer as a number, implicitly in nM.

Query string: Fill in reported Kd for this entry: A1D98GluL1 (antibody, human IgG1, kappa, V domains shown, CDRH3 variant of A1L1) VH: QVQLVQSGAEVKKPGSSVKVSCKASGFYIKDTYMHWVRQAPGQGLEWMGTIDPANGNTKYVPKFQGRVTITADESTSTAYMELSSLRSEDTAVYYCARSIYEDYHYDDYYAMDYWGQGTLVTVSS VL: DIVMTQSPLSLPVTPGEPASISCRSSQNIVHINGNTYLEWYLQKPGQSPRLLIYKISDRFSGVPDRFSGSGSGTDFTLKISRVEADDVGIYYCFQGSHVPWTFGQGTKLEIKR
Result string: 0.779

Query string: Fill in reported Kd for this entry: A1Y100B IleL1 (antibody, human IgG1, kappa, V domains shown, CDRH3 variant of A1L1) VH: QVQLVQSGAEVKKPGSSVKVSCKASGFYIKDTYMHWVRQAPGQGLEWMGTIDPANGNTKYVPKFQGRVTITADESTSTAYMELSSLRSEDTAVYYCARSIYDDYHIDDYYAMDYWGQGTLVTVSS VL: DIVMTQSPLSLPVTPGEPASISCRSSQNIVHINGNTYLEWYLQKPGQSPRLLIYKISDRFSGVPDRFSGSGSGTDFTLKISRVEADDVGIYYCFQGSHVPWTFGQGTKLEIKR
Result string: 0.073

Query string: Fill in reported Kd for this entry: A1H100A ThrL1 (antibody, human IgG1, kappa, V domains shown, CDRH3 variant of A1L1) VH: QVQLVQSGAEVKKPGSSVKVSCKASGFYIKDTYMHWVRQAPGQGLEWMGTIDPANGNTKYVPKFQGRVTITADESTSTAYMELSSLRSEDTAVYYCARSIYDDYTYDDYYAMDYWGQGTLVTVSS VL: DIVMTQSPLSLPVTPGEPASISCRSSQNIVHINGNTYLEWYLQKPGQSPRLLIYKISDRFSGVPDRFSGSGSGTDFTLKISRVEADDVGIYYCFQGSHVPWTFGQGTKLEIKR
Result string: 0.211
